Test system: Penicillium commune
Assay: Anti-mycotic in vitro activity, series dilution test
Assay type: cell-based
Details: γ/ml of nutrient medium, 28° C., 24 to 96 hours, read-out: Minimum inhibitory concentration
Field: MIC. Provide a value for each of the compounds that follow.

Compound	MIC
Cl.O=C(c1ccc(Cl)cc1Cl)C(Oc1ccc(Cl)cc1)n1cncn1 (stereo not shown)	> 64 µg/mL

# batch size: 3; output MIC per entry
1. COC(=O)c1ccc(OC(C(O)C(C)(C)C)n2cncn2)cc1 (stereo not shown) [H, reference compound]
2. O=C(c1ccc(Cl)cc1)C(Oc1ccc(Cl)cc1Cl)n1cncn1 (stereo not shown) [G, reference compound]
3. CC(C)(C)C(=O)C(Oc1ccc(Cl)cc1Cl)n1cncn1 (stereo not shown) [F, reference compound]

Outgoing:
1: > 64 µg/mL; 2: > 100 µg/mL; 3: > 100 µg/mL

Each compound below has a reported value. Please supply its MIC.
1. OC(c1ccccc1)C(Oc1ccc(Cl)cc1)n1cncn1 (stereo not shown) [K, reference compound]
2. O=C(c1ccc(Cl)cc1Cl)C(Oc1ccc(-c2ccccc2)cc1)n1cncn1 (stereo not shown)
3. OC(c1ccc(Cl)cc1Cl)C(Oc1ccc(-c2ccccc2)cc1)n1cncn1 (stereo not shown)

Outgoing:
1. > 64 µg/mL
2. > 64 µg/mL
3. > 64 µg/mL

====

System: Podosphaera leucotricha
Assay: Podosphaera test (apple)/protective
Type: in vivo
Conditions: apple seedlings, 10 days after inoculation, protective
Would you mind telling me the reported Infection in % at an active compound concentration of 0.001% of each entry?
Numeric answer plus unit only.

Molecule	Recorded result
OC(c1ccc(Cl)cc1Cl)C(Oc1ccc(Cl)cc1Cl)n1cncn1 (stereo not shown)	0%
CC(C)(C)C(=O)C(Oc1ccc(Cl)cc1)n1cncn1 (stereo not shown) [D, reference compound]	42%
Cl.OC(c1ccc(Cl)cc1Cl)C(Oc1ccc(Cl)cc1)n1cncn1 (stereo not shown)	0%

Incoming: Which value of Infection in % at an active compound concentration of 0.001% has been reported for Cl.O=C(c1ccc(Cl)cc1Cl)C(Oc1ccc(Cl)cc1)n1cncn1 (stereo not shown) in the records?
Outgoing: 25%

====

System: Penicillium commune
Experiment: Anti-mycotic in vitro activity, series dilution test
Assay type: cell-based
Conditions: γ/ml of nutrient medium, 28° C., 24 to 96 hours, read-out: Minimum inhibitory concentration
Measure: MIC

Molecule	MIC
OC(c1ccc(Cl)cc1Cl)C(Oc1ccc(-c2ccc(Cl)cc2)cc1)n1cncn1 (stereo not drawn)	> 64 µg/mL
Cl.OC(c1ccc(Cl)cc1Cl)C(Oc1ccc(Cl)cc1)n1cncn1 (stereo not drawn)	> 64 µg/mL

# ---- query molecule ----
Incoming: What does the data say about its MIC? Entry: OC(c1ccc(Cl)cc1Cl)C(Oc1ccc(Cl)cc1Cl)n1cncn1 (stereo not drawn)
Outgoing: > 64 µg/mL
